- ASSAYED_TARGET: FLAG-mouse δOR (Mus musculus)
- Construct: FLAG; expressed in transfected cells; host or cells: HEK 293
- Sequence (P32300 whole entry): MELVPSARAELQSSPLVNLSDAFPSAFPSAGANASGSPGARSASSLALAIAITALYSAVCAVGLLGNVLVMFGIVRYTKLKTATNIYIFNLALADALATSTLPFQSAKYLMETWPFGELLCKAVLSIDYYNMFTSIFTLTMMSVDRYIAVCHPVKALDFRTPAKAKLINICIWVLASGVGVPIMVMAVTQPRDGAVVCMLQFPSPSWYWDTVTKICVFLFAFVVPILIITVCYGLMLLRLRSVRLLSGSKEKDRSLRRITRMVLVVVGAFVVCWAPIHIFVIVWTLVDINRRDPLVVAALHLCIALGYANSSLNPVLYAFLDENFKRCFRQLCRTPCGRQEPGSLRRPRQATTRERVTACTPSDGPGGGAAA
- RUN_DESCRIPTION: cAMP GloSensor inhibition assay in HEK 293 cells
- Format: cell-based
- MEASUREMENT_SETUP: HEK 293, forskolin 30 µM; read-out: cAMP IC50 (nM) δOR
Square brackets hold non-standard residues; d marks the D form. Peptide text beside a SMILES is read from it. 3Pal = N[C@@H](Cc1cccnc1)C(=O)O
The label 1 is reserved for IC50 strictly under 0.3 nM; -1 covers values equal to or above it.

compound=CC(C)C[C@H](NC(=O)[C@H](Cc1cccc(C(F)(F)F)c1)NC(=O)CNC(=O)CNC(=O)[C@@H](N)Cc1ccc(O)cc1)C(=O)O label_class=1
compound=CC(C)C[C@H](NC(=O)[C@H](Cc1cccc(Cl)c1)NC(=O)CNC(=O)CNC(=O)[C@@H](N)Cc1ccc(O)cc1)C(=O)O label_class=1
compound="CC(C)C[C@H](NC(=O)[C@H](Cc1cccnc1)NC(=O)CNC(=O)CNC(=O)[C@@H](N)Cc1ccc(O)cc1)C(=O)O [Compound 1k] (H-YGG[3Pal]L-OH; N-terminus and C-terminus assumed)" label_class=-1
compound=CC(C)C[C@H](NC(=O)[C@H](Cc1cccc(C#N)c1)NC(=O)CNC(=O)CNC(=O)[C@@H](N)Cc1ccc(O)cc1)C(=O)O label_class=-1
compound=COc1cccc(C[C@H](NC(=O)CNC(=O)CNC(=O)[C@@H](N)Cc2ccc(O)cc2)C(=O)N[C@@H](CC(C)C)C(=O)O)c1 label_class=1

----------
- ASSAYED_TARGET: UniProtKB P35372
- Sequence (P35372 whole entry): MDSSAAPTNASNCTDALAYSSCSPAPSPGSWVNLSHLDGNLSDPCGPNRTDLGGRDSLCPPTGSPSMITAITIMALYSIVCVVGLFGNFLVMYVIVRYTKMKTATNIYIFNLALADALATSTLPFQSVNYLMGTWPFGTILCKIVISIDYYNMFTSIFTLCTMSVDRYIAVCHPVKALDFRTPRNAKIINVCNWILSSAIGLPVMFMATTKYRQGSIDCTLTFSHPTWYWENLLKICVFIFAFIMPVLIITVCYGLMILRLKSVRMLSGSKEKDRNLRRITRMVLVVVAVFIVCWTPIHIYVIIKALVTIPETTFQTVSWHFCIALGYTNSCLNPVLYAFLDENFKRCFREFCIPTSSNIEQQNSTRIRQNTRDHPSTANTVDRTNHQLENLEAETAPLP
- RUN_DESCRIPTION: cell-based
- Assay type: cell-based
β-Arrestin 2 µOR Efficacy (% + SEM) less than 70% is rule met; β-Arrestin 2 µOR Efficacy (% + SEM) greater than or equal to 70% is rule not met.

structure_smiles=COc1cccc(C[C@H](NC(=O)CNC(=O)CNC(=O)[C@@H](N)Cc2ccc(O)cc2)C(=O)N[C@@H](CC(C)C)C(=O)O)c1 label_class="rule met"
structure_smiles=CC(C)C[C@H](NC(=O)[C@H](Cc1cccc([N+](=O)[O-])c1)NC(=O)CNC(=O)CNC(=O)[C@@H](N)Cc1ccc(O)cc1)C(=O)O label_class="rule met"
structure_smiles=CC(C)C[C@H](NC(=O)[C@H](Cc1cccc(Cl)c1)NC(=O)CNC(=O)CNC(=O)[C@@H](N)Cc1ccc(O)cc1)C(=O)O label_class="rule not met"
structure_smiles=CC(C)C[C@H](NC(=O)[C@H](Cc1cccc(Br)c1)NC(=O)CNC(=O)CNC(=O)[C@@H](N)Cc1ccc(O)cc1)C(=O)O label_class="rule not met"
structure_smiles=CC(C)C[C@H](NC(=O)[C@H](Cc1cccc(F)c1)NC(=O)CNC(=O)CNC(=O)[C@@H](N)Cc1ccc(O)cc1)C(=O)O label_class="rule not met"

----------
Listed here: items and their measured cAMP µOR Efficacy (%+SD).
- ASSAYED_TARGET: HA-mouse µOR (Mus musculus, UniProt P42866)
- Construct: HA; expressed in transfected cells; host or cells: HEK 293
- Sequence (P42866 whole entry): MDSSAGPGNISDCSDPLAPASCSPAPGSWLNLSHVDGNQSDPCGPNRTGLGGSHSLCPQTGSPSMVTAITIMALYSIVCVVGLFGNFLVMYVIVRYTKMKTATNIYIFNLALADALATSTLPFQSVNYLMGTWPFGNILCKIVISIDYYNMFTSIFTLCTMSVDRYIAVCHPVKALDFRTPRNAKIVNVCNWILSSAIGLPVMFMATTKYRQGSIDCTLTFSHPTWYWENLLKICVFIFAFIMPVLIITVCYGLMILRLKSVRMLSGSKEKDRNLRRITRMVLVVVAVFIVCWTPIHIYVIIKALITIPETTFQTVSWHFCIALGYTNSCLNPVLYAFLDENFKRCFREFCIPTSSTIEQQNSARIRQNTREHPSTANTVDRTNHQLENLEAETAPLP
- RUN_DESCRIPTION: cAMP GloSensor inhibition assay in HEK 293 cells
- Type: cell-based
- MEASUREMENT_SETUP: relative to DAMGO = 100
MEASUREMENT_KIND: cAMP µOR Efficacy (%+SD) (%)

compound="C[C@@H](NC(=O)[C@@H](N)Cc1ccc(O)cc1)C(=O)NCC(=O)N(C)[C@@H](Cc1ccccc1)C(=O)NCCO [DAMGO, (D-Ala^2, N-MePhe^4, Gly-ol) enkephalin, reference compound]" assayed_target="HA-mouse µOR (Mus musculus, UniProt P42866)" numeric_result=100
compound=COc1cccc(C[C@H](NC(=O)CNC(=O)CNC(=O)[C@@H](N)Cc2ccc(O)cc2)C(=O)N[C@@H](CC(C)C)C(=O)O)c1 assayed_target="HA-mouse µOR (Mus musculus, UniProt P42866)" numeric_result=87
compound=CC(C)C[C@H](NC(=O)[C@H](Cc1cccc(C(F)(F)F)c1)NC(=O)CNC(=O)CNC(=O)[C@@H](N)Cc1ccc(O)cc1)C(=O)O assayed_target="HA-mouse µOR (Mus musculus, UniProt P42866)" numeric_result=90
compound="CC(C)C[C@H](NC(=O)[C@H](Cc1ccccc1)NC(=O)CNC(=O)CNC(=O)[C@@H](N)Cc1ccc(O)cc1)C(=O)O [Leu^5-enkephalin, Tyr^1-Gly^2-Gly^3-Phe^4-Leu^5, reference compound]" assayed_target="HA-mouse µOR (Mus musculus, UniProt P42866)" numeric_result=100
compound=CC(C)C[C@H](NC(=O)[C@H](Cc1cccc(C#N)c1)NC(=O)CNC(=O)CNC(=O)[C@@H](N)Cc1ccc(O)cc1)C(=O)O assayed_target="HA-mouse µOR (Mus musculus, UniProt P42866)" numeric_result=92

Attribution: paper PMC6943441
